relative activity (%) vs Ref(TEVA) by entry:
# tested target: CGRP antigen
# procedure details: cell-based or functional assay
Put down the number, then write its unit next to it.

Query: I would be grateful if you could share the reported relative activity (%) vs Ref(TEVA) for hu154 (antibody, V domains shown, 3E5 HC-1/3E5 LC-1) VH: QVQLVQSGAEVKKPGASVKVSCKTSGYTFTDYNMHWVRQAPGQRLEWMGYISPYNGGTAYNQKFKFRVTLTVDTSSSTAYMELSSLRSEDTAVYYCAREGLGGYWGQGTLVTVSS VL: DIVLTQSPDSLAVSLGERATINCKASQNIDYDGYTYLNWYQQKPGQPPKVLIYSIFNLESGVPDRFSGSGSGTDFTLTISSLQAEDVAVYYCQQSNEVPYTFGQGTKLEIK .
Reply: 36%

Query: I would be grateful if you could share the reported relative activity (%) vs Ref(TEVA) for hu50 (antibody, V domains shown, 1F5 HC-2/3E5 LC-1) VH: QVQLVQSGAEVKKPGASVKVSCKASGYTFTDFNMHWVRQAPGQRLEWMGYIYPYNGDVVYNQNFTNRVTLTVDTSSSTAYMELSSLRSEDTAVYYCAREGLGGYWGQGTLVTVSS VL: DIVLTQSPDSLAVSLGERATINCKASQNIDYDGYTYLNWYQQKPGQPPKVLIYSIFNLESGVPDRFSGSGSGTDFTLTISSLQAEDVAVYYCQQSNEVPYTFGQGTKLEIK .
Reply: 46%

Query: I would be grateful if you could share the reported relative activity (%) vs Ref(TEVA) for hu63 (antibody, V domains shown, 1F5 HC-3/3E5 LC-1) VH: QVQLVQSGAEVKKPGASVKVSCKASGYTFTDFNMHWVRQAPGQGLEWMGYIYPYNGDVVYNQNFTNRVTLTVDTSSSTAYMELRSLRSDDTAVYYCAREGLGGYWGQGTLVTVSS VL: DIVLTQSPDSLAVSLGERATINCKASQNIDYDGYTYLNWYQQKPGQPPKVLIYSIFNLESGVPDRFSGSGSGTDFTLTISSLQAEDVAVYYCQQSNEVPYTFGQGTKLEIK .
Reply: 62%

Now turn to the next binder.
Query: I would be grateful if you could share the reported relative activity (%) vs Ref(TEVA) for hu131 (antibody, V domains shown, 2B8 HC1-3/1A2 LC2-1) VH: QVQLVQSGAEVKKPGASVKVSCKASGYTFTDYNMHWVRQAPGQGLEWMGNIYPYNAGTVYNQKFNNRVTLTVDTSSSTAYMELSRLRSDDTAVYYCAREGLGGYWGQGTLVTVSS VL: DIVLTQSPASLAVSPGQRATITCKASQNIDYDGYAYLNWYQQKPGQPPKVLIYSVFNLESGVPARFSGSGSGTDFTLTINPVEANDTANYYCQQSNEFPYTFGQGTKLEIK .
Reply: 80%

Reference source for all entries: patent US20260125454A1
